# TEST SYSTEM: Genome polyprotein (dengue virus type 2, UniProt P29990)
# Sequence (P29990 1346-1475 limits assumed): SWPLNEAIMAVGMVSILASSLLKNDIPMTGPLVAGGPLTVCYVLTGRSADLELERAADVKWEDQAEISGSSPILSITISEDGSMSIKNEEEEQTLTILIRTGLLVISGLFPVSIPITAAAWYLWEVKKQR
# Sequence (P29990 1476-2093 limits assumed): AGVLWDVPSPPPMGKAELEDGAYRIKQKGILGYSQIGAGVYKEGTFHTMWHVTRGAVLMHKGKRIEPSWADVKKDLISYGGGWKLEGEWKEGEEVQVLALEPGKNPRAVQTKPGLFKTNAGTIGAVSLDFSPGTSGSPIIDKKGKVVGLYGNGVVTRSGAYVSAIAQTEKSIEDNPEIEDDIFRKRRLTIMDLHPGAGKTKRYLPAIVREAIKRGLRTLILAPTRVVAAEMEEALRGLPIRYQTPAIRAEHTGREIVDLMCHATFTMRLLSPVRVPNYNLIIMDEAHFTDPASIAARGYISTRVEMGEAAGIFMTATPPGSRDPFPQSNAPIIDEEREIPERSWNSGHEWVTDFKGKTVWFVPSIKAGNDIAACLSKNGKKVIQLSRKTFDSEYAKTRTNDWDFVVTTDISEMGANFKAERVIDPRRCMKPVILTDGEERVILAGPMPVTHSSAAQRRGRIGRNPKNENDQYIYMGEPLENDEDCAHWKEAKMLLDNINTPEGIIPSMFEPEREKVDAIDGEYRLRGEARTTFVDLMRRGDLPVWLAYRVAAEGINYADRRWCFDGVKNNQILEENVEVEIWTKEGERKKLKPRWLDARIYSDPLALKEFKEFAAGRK
# Format: functional, Thailand/16681/1984
pIC50: −log10 of the molar value.
READOUT: pIC50

Worked examples, 8 compounds total:
{"SMILES STRING": "Cc1ncc2c(n1)CCC[C@H]2NC(=O)c1cccc2c1CC(=O)N2", "READOUT": "pIC50", "RESULT": "< 4.00"}
{"SMILES STRING": "CNC(=O)c1cnncc1NS(=O)(=O)c1ccc(Oc2ccccc2Cl)cc1", "READOUT": "pIC50", "RESULT": "< 4.00"}
{"SMILES STRING": "O=C(Nc1ccc2c(c1)CNC2)c1c(Cl)ccc2c1OCO2", "READOUT": "pIC50", "RESULT": "< 4.00"}
{"SMILES STRING": "COC(=O)c1cc2c(cc1NC(=O)c1cc(F)cc3[nH]ncc13)CNC2", "READOUT": "pIC50", "RESULT": "< 4.00"}
{"SMILES STRING": "O=C(Nc1cc(Cl)cc(C(=O)N2CCC(c3nn[nH]n3)CC2)c1)OCc1ccccc1", "READOUT": "pIC50", "RESULT": "< 4.00"}
{"SMILES STRING": "NC(=O)c1ccc(N2CC[C@@H](CO)C2)cc1", "READOUT": "pIC50", "RESULT": "< 4.00"}
{"SMILES STRING": "CC[C@H](Cc1nnn[nH]1)c1ccc(NC(=O)c2cc(Cl)cc3c2CCC3)cc1", "READOUT": "pIC50", "RESULT": 4.08}
{"SMILES STRING": "CCn1ccnc(N2CC[C@H](c3ccc(C#N)cc3)C2)c1=O", "READOUT": "pIC50", "RESULT": "< 4.00"}

Short answer please: pIC50, Genome polyprotein (dengue virus type 2, UniProt P29990), entry CC1(C)C(=O)Nc2ccc(C(=O)Nc3ccc4c(c3)CNC4)cc21
< 4.00

----------
IC50 values, listed per item
# TEST SYSTEM: Genome polyprotein (dengue virus type 2)
# Assay type: functional, Thailand/16681/1984

Worked examples, 2 compounds total:
{"SMILES STRING": "[O-][S@@+](Cc1ncccn1)c1ncccc1Br", "IC50": "> 99.5 µM"}
{"SMILES STRING": "O=C(Nc1cc(Cl)cc(C(=O)Nc2nc([C@H]3CCCN3)cc(=O)[nH]2)c1)OCc1ccccc1", "IC50": "86.9 µM"}

Can you share its IC50? I mean this compound: N#Cc1cccc(-c2nc3c(C(=O)Nc4ccccn4)cc(Cl)cc3[nH]2)c1
28.9 µM

Can you share its IC50? I mean this compound: Cn1ccnc1C(=O)N[C@H](C(=O)Nc1cccc(CN)c1)c1ccc(OCc2ccccc2)cc1
> 99.5 µM

Can you share its IC50? I mean this compound: Cc1cc(C)n(-c2ccc(NS(=O)(=O)c3ccc(Cl)cc3C(=O)O)cc2)n1
> 99.5 µM

----------
# TEST SYSTEM: Genome polyprotein (dengue virus type 2, UniProt P29990)
# Format: functional, Thailand/16681/1984
pIC50: −log10 of the molar value.
READOUT: pIC50

Worked examples, 5 molecules total:
{"SMILES STRING": "O=C(NCC(F)F)[C@H](Nc1ccc2c(c1)CNC2)c1cc(Br)ccc1C1CC1", "RESULT": "< 4.00"}
{"SMILES STRING": "Cc1cc(NC(=O)c2cc(C3CC3)n(C)c2C)ncc1S(N)(=O)=O", "RESULT": "< 4.00"}
{"SMILES STRING": "Cc1ncc(COc2ccc([C@@H](NC(=O)OCc3ccccc3)C(=O)Nc3cccc(CN)c3)cc2)o1", "RESULT": "< 4.00"}
{"SMILES STRING": "c1ccc2sc(C3CCN(Cc4n[nH]c5c4CCCC5)CC3)nc2c1", "RESULT": "< 4.00"}
{"SMILES STRING": "O=C(O)c1cc(Cl)cc(NS(=O)(=O)c2ccc(Oc3ccccc3Cl)cc2)c1", "RESULT": "< 4.00"}

Can you share its pIC50? I mean this molecule: NCCCc1ccc(F)c(NC(=O)c2cc(Cl)cc(NC(=O)OCc3ccccc3)c2)c1
4.56

Can you share its pIC50? I mean this molecule: NCc1cccc([C@H](C#CCO)Nc2cc(Cl)cc(NC(=O)OCc3ccccc3)c2)c1
4.19

Can you share its pIC50? I mean this molecule: CCn1c(=O)c(N2CCC[C@@H]2Cc2cccs2)nc2ccccc21
< 4.00

Can you share its pIC50? I mean this molecule: Cn1cncc1COc1cccc([C@H](NC(=O)OCc2ccccc2)C(=O)Nc2cccc(CN)c2)c1
4.18

Can you share its pIC50? I mean this molecule: CNC(=O)c1cc(Cl)ccc1NS(=O)(=O)c1ccc(Oc2ccccc2Cl)cc1
4.47

Can you share its pIC50? I mean this molecule: O=C(O)c1cc(Cl)c(F)cc1NS(=O)(=O)c1ccc(Oc2ccccc2)cc1
4.88

Can you share its pIC50? I mean this molecule: C#C[C@H](Nc1cc([C@H]2CCOC2)ccn1)c1cc(C2CC2)n(C)n1
< 4.00

Can you share its pIC50? I mean this molecule: O=C(Nc1ccc2c(c1)CNC2)c1cncc(-c2ccccc2)c1
< 4.00

Can you share its pIC50? I mean this molecule: CC(=O)N[C@]1(C)C(=O)Nc2cc(F)cc(C(=O)Nc3ccc4c(c3)CNC4)c21
< 4.00

Can you share its pIC50? I mean this molecule: c1ccc(-c2ncc(CN3CCC(c4nc5ccccc5s4)CC3)[nH]2)cc1
< 4.00

----------
IC50 values, listed per item
# TEST SYSTEM: Genome polyprotein (dengue virus type 2, UniProt P29990)
# Assay type: functional, Thailand/16681/1984

Worked examples, 6 compounds total:
{"SMILES STRING": "NCc1cccc(NC(=O)c2cc(NC(=O)OCc3ccccc3)cc(C(F)(F)F)c2F)c1", "IC50": "> 100 µM"}
{"SMILES STRING": "CNC(=O)[C@H](Nc1cc(CNC(=O)OC(C)(C)C)cc(C(=O)O)c1)c1cc(Cl)cc(C2CC2)c1", "IC50": "> 100 µM"}
{"SMILES STRING": "CS(=O)(=O)Nc1ccc(Cl)cc1C(=O)Nc1cccc(CN)c1", "IC50": "> 100 µM"}
{"SMILES STRING": "CO[C@H]1CCCN(C(=O)c2ccnc(NC(=O)c3cc(C4CC4)n(C)c3C)c2)C1", "IC50": "> 100 µM"}
{"SMILES STRING": "O=C(Nc1ccc2c(c1)CNC2)N1CCC[C@@H]1COCc1ccccc1", "IC50": "> 100 µM"}
{"SMILES STRING": "C[C@H](C(=O)O)N(C)C(=O)c1cc(Cl)cc(NC(=O)OCc2ccccc2)c1", "IC50": "> 100 µM"}

In the following, a different compound is considered.
Can you share its IC50? I mean this compound: CC(=O)N1CCCc2cc(NC(=O)c3cc(C4CC4)n(C)c3C)ccc21
> 100 µM

----------
# TEST SYSTEM: Genome polyprotein (dengue virus type 2)
# Assay type: functional, Thailand/16681/1984
pIC50: −log10 of the molar value.
pIC50 values, listed per item

{"SMILES STRING": "O=C(O)c1cc(Cl)ccc1S(=O)(=O)NC1CCN(C(=O)c2ccccc2C(F)(F)F)CC1", "TEST SYSTEM": "Genome polyprotein (dengue virus type 2)", "pIC50": "< 4.00"}
{"SMILES STRING": "C=CC[C@H](Nc1cc([C@H]2CCOC2)ccn1)c1cc(C2CC2)n(C)n1", "TEST SYSTEM": "Genome polyprotein (dengue virus type 2)", "pIC50": "< 4.00"}
{"SMILES STRING": "O=C(Cn1ccnc(N2CC[C@H](CO)C2)c1=O)NCc1nccs1", "TEST SYSTEM": "Genome polyprotein (dengue virus type 2)", "pIC50": "< 4.00"}
{"SMILES STRING": "O=C1Cc2c(cccc2C(=O)Nc2cc3c(cn2)OCCO3)N1", "TEST SYSTEM": "Genome polyprotein (dengue virus type 2)", "pIC50": "< 4.00"}

Can you share its pIC50? I mean this compound: O=C(Nc1cc(Cl)cc(C(=O)NC[C@@]23CN[C@H](CCO2)C3)c1)OCc1ccccc1
< 4.00

Can you share its pIC50? I mean this compound: NCc1cccc(NC(=O)[C@H](NS(=O)(=O)Cc2ccccc2)c2ccc(OCc3ccccc3)cc2)c1
< 4.00

Can you share its pIC50? I mean this compound: O=C(O)Cn1ccnc(N2CC[C@@H](CO)C2)c1=O
< 4.00
